This section presents compounds with their documented IC50 values.
assay_target: DNA gyrase subunit B (Staphylococcus aureus)
assay: Inhibition of Staphylococcus aureus DNA GyraseB ATPase activity using linear pBR322 DNA as substrate incubated for 30 mins by fluorescence polarization analysis
Write the value in nM as a bare number.

Example results:
[[record]]
compound = "CCNC(=O)Nc1cn(C2CCN(C)CC2)c2cc(-c3cccnc3)cnc12"
reading_unit = "nM"
quantitative_readout = 6420

[[record]]
compound = "CCNC(=O)Nc1cn(-c2ncc(CC)cn2)c2cc(-c3ccn(C)c(=O)c3)cnc12"
reading_unit = "nM"
quantitative_readout = 71

[[record]]
compound = "CCNC(=O)Nc1cn(-c2ncc(C)c(CCCC(=O)O)n2)c2cc(-c3cccnc3)cnc12"
reading_unit = "nM"
quantitative_readout = 15

[[record]]
compound = "CCNC(=O)Nc1cn(-c2ncc(Cl)cn2)c2cc(-c3ccn(C)c(=O)c3)cnc12"
reading_unit = "nM"
quantitative_readout = 262

[[record]]
compound = "CCNC(=O)Nc1c[nH]c2cc(-c3cccnc3)cnc12"
reading_unit = "nM"
quantitative_readout = 6500

[[record]]
compound = "CCNC(=O)Nc1cn(C2CCN(C)C2=O)c2cc(-c3cccnc3)cnc12 (stereo not given)"
reading_unit = "nM"
quantitative_readout = 5290

[[record]]
compound = "CCNC(=O)Nc1cn(-c2ncccn2)c2cc(-c3ccn(C)c(=O)c3)cnc12"
reading_unit = "nM"
quantitative_readout = 12


Shift focus to the following entry.
Any idea what IC50 was measured for `CCNC(=O)Nc1cn(-c2ccccn2)c2cc(-c3cccnc3)cnc12` ?
140

* * *

This section presents compounds with their documented pIC50 values.
assay_target: DNA gyrase subunit B (Staphylococcus aureus, UniProt P0A0K8)
Sequence (P0A0K8 whole entry): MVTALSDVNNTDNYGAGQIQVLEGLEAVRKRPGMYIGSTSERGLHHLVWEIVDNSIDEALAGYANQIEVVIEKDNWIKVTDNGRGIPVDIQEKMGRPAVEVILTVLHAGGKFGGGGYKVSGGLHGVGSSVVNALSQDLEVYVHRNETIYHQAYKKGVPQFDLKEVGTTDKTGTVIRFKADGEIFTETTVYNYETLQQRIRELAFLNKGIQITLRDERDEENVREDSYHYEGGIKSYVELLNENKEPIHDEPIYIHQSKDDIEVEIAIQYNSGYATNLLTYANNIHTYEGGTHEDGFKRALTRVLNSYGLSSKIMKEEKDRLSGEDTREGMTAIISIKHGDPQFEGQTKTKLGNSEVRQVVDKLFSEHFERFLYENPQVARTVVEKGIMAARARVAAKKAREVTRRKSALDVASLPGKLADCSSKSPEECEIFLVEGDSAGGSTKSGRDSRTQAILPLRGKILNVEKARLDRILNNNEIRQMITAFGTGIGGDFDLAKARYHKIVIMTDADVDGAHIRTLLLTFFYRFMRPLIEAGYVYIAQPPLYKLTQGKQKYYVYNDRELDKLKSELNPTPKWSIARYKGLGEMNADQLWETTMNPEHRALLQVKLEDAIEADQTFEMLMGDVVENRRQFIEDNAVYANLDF
assay: Inhibition of Staphylococcus aureus DNA GyraseB ATPase activity using linear pBR322 DNA as substrate incubated for 30 mins by fluorescence polarization analysis
pIC50 field: float, defined as -log10 of concentration (mol/L).

Example results:
[[record]]
compound = "CCNC(=O)Nc1cn(-c2ncc(C)cn2)c2cc(-c3cccnc3)cnc12"
measurement_name = "pIC50"
quantitative_readout = 7.19

[[record]]
compound = "CCNC(=O)Nc1cn(-c2ncc(Cl)cn2)c2cc(-c3cccnc3F)cnc12"
measurement_name = "pIC50"
quantitative_readout = 5.22

[[record]]
compound = "CCNC(=O)Nc1cn(-c2ncc(Br)cn2)c2cc(-c3ccn(CCO)c(=O)c3)cnc12"
measurement_name = "pIC50"
quantitative_readout = 8.10

[[record]]
compound = "CCNC(=O)Nc1cn(-c2ncc(Cl)cn2)c2cc(-c3cccnc3)cnc12"
measurement_name = "pIC50"
quantitative_readout = 7.04

[[record]]
compound = "CCNC(=O)Nc1cn(-c2ncc(F)cn2)c2cc(-c3cccnc3)cnc12"
measurement_name = "pIC50"
quantitative_readout = 6.90

[[record]]
compound = "CCNC(=O)Nc1cn(-c2ncc(Br)cn2)c2cc(-c3ccn(C)c(=O)c3)cnc12"
measurement_name = "pIC50"
quantitative_readout = 7.03


Shift focus to the following entry.
Any idea what pIC50 was measured for `CCNC(=O)Nc1nc(CO)c(-c2ccc[nH]2)s1` ?
5.60

* * *

assay_target: DNA gyrase subunit B (Staphylococcus aureus, UniProt P0A0K8)
assay: Inhibition of Staphylococcus aureus DNA GyraseB ATPase activity using linear pBR322 DNA as substrate incubated for 30 mins by fluorescence polarization analysis
pIC50: −log10 of the molar value.
Quick rule: pIC50 of at least 7 means met, below that means not met.

Consider the following illustrative entries.
[[record]]
compound = "CCNC(=O)Nc1cn(-c2ncc(C)cn2)c2cc(-c3ccn(C)c(=O)c3)cnc12"
class = "met"

[[record]]
compound = "CCNC(=O)Nc1cn(-c2ncccn2)c2cc(-n3cnc(C(=O)NC4CC4)c3)cnc12"
class = "met"

[[record]]
compound = "CCNC(=O)Nc1nc(/C=C/c2cccnc2)c(-c2ccc[nH]2)s1"
class = "not met"

[[record]]
compound = "CCNC(=O)Nc1cn(CC(O)CO)c2cc(-c3cccnc3)cnc12 (configuration not stated)"
class = "not met"

[[record]]
compound = "CCNC(=O)Nc1cn(C(=O)c2ccccn2)c2cc(-c3cccnc3)cnc12"
class = "not met"


Has `CCNC(=O)Nc1cn(C)c2cc(-c3cccnc3)cnc12` a recorded pIC50 greater than or equal to 7?
not met

Has `CCNC(=O)Nc1cn(-c2ncc(C#N)cn2)c2cc(-c3cccnc3)cnc12` a recorded pIC50 greater than or equal to 7?
met

Has `CCNC(=O)Nc1cn(Cc2ccccc2)c2cc(-c3cccnc3)cnc12` a recorded pIC50 greater than or equal to 7?
not met

Has `CCNC(=O)Nc1cn(CCOC)c2cc(-c3cccnc3)cnc12` a recorded pIC50 greater than or equal to 7?
not met

Has `CCNC(=O)Nc1cn(-c2nccc(CCO)n2)c2cc(-c3cccnc3)cnc12` a recorded pIC50 greater than or equal to 7?
met

Has `CCNC(=O)Nc1cn(-c2ncc(CC)cn2)c2cc(-c3cccnc3)cnc12` a recorded pIC50 greater than or equal to 7?
met

Has `CCNC(=O)Nc1cn(-c2ncccc2C)c2cc(-c3cccnc3)cnc12` a recorded pIC50 greater than or equal to 7?
not met

Has `CCNC(=O)Nc1cn(C2CCCCC2)c2cc(-c3cccnc3)cnc12` a recorded pIC50 greater than or equal to 7?
not met

Has `CCNC(=O)Nc1cn(-c2ncc(Cl)cn2)c2cc(-c3cnc(C#N)nc3)cnc12` a recorded pIC50 greater than or equal to 7?
met

Has `C=CCn1cc(NC(=O)NCC)c2ncc(-c3cccnc3)cc21` a recorded pIC50 greater than or equal to 7?
not met

Has `C=CC(=O)n1cc(NC(=O)NCC)c2ncc(-c3cccnc3)cc21` a recorded pIC50 greater than or equal to 7?
not met

Has `CCNC(=O)Nc1cn(-c2ncc(C)c(CCC(=O)O)n2)c2cc(-c3cccnc3)cnc12` a recorded pIC50 greater than or equal to 7?
met

Has `CCNC(=O)Nc1cn(-c2nccc(CCCO)n2)c2cc(-c3cccnc3)cnc12` a recorded pIC50 greater than or equal to 7?
met

Has CCNC(=O)Nc1cn(C2C=CCCC2)c2cc(-c3cccnc3)cnc12 (configuration not stated) a recorded pIC50 greater than or equal to 7?
not met

The reported numbers originate from ChEMBL document CHEMBL3734679.
